- Tested on: sugar beet
- Test Protocol: Test B pre/postemergence sugar beet
- Assay type: in vivo, Beta vulgaris
- Experimental Setup: Rate 125 g/ha; Postemergence; scale 0 to 10, 0 no effect, 10 complete control
- Experimental: […] At the same time, these crop and weed species were also treated with postemergence applications of test chemicals formulated in the same manner. […] Treated plants and controls were maintained in a greenhouse for twelve to sixteen days, after which all species were compared to controls and visually evaluated. […]
Readings of Sugarbeets plant response rating for the listed compounds
Parameter: Sugarbeets plant response rating

1. CCN(C(=O)n1oc(=O)n(-c2c(C)cccc2C)c1=O)C1CCCCC1 [Compound 27]; 0
2. Cc1cccc(C)c1-n1c(=O)on(C(=O)N(c2ccc(Cl)cc2)C(C)C)c1=O [Compound 47]; 0
3. Cc1cccc(Cl)c1-n1c(=O)on(C(=O)N(c2ccc(F)cc2)C(C)C)c1=O [Compound 53]; 0
4. Cc1c(Cl)cccc1-n1c(=O)on(C(=O)N(c2ccc(F)cc2)C(C)C)c1=O [Compound 21]; 0
5. Cc1cc(C)c(-n2c(=O)on(C(=O)N(c3ccc(F)cc3)C(C)C)c2=O)c(C)c1 [Compound 60]; 0
6. Cc1ccccc1-n1c(=O)on(C(=O)N(c2ccc(C(F)(F)F)cc2)C(C)C)c1=O [Compound 39]; 0

====

- Test system: sugar beet
- Test Protocol: Test B pre/postemergence sugar beet
- Assay type: in vivo, Beta vulgaris
- Experimental Setup: Preemergence, Rate 125 g/ha; scale 0 to 10, 0 is no effect, 10 is complete control
Parameter: Sugarbeets plant response rating

1) CC(C)N(C(=O)n1oc(=O)n(CC(=O)C2CC2)c1=O)c1ccc(F)cc1F; 0
2) CC(C)N(C(=O)n1oc(=O)n(CCCC(F)(F)F)c1=O)c1ccc(F)cc1F; 6
3) CC(C)N(C(=O)n1oc(=O)n(CCCF)c1=O)c1ccccc1; 6
4) CC(C)N(C(=O)n1oc(=O)n(CC2CCC2)c1=O)c1ccc(F)cc1F; 0

====

- System: crabgrass
- Test Protocol: Test B pre/postemergence crabgrass
- Type: in vivo, Digitaria sanguinalis
- Experimental Setup: Rate 250 g/ha; Postemergence
Readings of Plant response rating (0 to 10; 0 is no effect, 10 is complete control), Crabgrass for the listed molecules
Parameter: Plant response rating (0 to 10; 0 is no effect, 10 is complete control), Crabgrass

1) CCc1cccc(C)c1-n1c(=O)on(C(=O)N(c2ccc(F)cc2)C(C)C)c1=O; 0
2) CC(C)N(C(=O)n1oc(=O)n(Cc2ccco2)c1=O)c1ccc(F)cc1F; 0
3) COc1cc(C)cc(C)c1-n1c(=O)on(C(=O)N(c2ccc(F)cc2F)C(C)C)c1=O; 1
4) Cc1nc(C)c(Cn2c(=O)on(C(=O)N(c3ccc(F)cc3)C(C)C)c2=O)s1; 1
5) CC(=O)Cn1c(=O)on(C(=O)N(c2ccc(F)cc2)C(C)C)c1=O; 3

====

- Tested on: rape
- Test Protocol: Test B pre/postemergence rape
- Type: in vivo, Brassica napus
- Experimental Setup: Preemergence, Rate 62 g/ha; scale 0 to 10 (0 no effect, 10 complete control)
Readings of Rape plant response rating for the listed compounds
Parameter: Rape plant response rating

1. C=CCn1c(=O)on(C(=O)N(c2ccc(F)cc2F)C(C)C)c1=O; 2
2. CCC(C)n1c(=O)on(C(=O)N(c2ccccc2)C(C)C)c1=O (stereo not drawn) [Compound 611]; 3
3. CC(C)N(C(=O)n1oc(=O)n(CNC(=O)c2ccccc2)c1=O)c1ccccc1; 0
4. COc1cccc(C)c1-n1c(=O)on(C(=O)N(c2ccc(F)cc2F)C(C)C)c1=O; 0
5. Cc1ccccc1Cn1c(=O)on(C(=O)N(c2ccc(F)cc2F)C(C)C)c1=O; 0
6. CC(C)c1noc(C(C)C)c1-n1c(=O)on(C(=O)N(c2ccc(F)cc2)C(C)C)c1=O; 0
7. CCC(C)n1c(=O)on(C(=O)N(c2ccccc2)C(C)C)c1=O (stereo not drawn) [Compound 610]; 3
8. Cc1nn(C)c(Cl)c1-n1c(=O)on(C(=O)N(c2ccccc2)C(C)C)c1=O; 0
9. CC(C)N(C(=O)n1oc(=O)n(C(C)C)c1=O)c1ccc(F)cc1; 8
10. CCN(CC)C(=O)Cn1c(=O)on(C(=O)N(c2ccccc2)C(C)C)c1=O; 0
11. CC(C)N(C(=O)n1oc(=O)n(CC[N+](=O)[O-])c1=O)c1ccc(F)cc1F; 0
12. CC(C)N(C(=O)n1oc(=O)n(C[Si](C)(C)C)c1=O)c1ccccc1; 0
